Reference for the values: patent US11753404B2

molecular target: BAF3 FL KIT EX11DEL/D816H (Homo sapiens, UniProt P10721, D816H, cells depend on it, form not given); construct: BAF3 FL KIT EX11DEL/D816H; test: c-Kit assay: Ba/F3 KIT mutant cell viability (Cell Titer-Glo, 72 hours); type: cell-based; settings: viability after 72 hours
Sequence (P10721 with tags, fused parts or gaps DEL557-558/D816H, form open): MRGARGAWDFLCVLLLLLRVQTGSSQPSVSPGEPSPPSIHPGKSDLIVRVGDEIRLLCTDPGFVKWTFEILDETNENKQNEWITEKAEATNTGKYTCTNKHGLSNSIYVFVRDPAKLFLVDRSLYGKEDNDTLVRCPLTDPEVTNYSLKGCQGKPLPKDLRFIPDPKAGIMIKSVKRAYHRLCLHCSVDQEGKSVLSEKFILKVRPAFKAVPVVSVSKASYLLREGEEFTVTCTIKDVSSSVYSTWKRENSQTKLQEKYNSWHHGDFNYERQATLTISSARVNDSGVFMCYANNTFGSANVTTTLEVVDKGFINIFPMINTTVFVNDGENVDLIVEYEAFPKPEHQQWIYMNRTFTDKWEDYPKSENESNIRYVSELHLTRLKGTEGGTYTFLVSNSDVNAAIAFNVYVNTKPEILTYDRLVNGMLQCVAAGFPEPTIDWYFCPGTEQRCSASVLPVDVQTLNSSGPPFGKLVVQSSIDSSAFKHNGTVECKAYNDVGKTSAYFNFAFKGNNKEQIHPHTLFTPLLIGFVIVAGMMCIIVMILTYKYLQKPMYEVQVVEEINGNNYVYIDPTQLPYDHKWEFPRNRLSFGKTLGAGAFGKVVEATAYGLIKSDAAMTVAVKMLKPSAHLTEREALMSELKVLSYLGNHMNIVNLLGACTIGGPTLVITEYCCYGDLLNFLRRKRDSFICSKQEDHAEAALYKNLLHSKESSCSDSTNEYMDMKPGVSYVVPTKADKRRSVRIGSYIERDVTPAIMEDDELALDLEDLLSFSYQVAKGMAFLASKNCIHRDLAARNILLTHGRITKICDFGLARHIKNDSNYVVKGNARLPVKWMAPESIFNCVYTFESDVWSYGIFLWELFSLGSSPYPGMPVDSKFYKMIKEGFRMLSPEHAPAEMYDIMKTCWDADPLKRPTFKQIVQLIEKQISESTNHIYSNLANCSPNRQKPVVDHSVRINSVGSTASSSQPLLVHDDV
# Lookup of reported GI50 keyed by entry
ASSAY_ENDPOINT: GI50

{"MOLECULE": "COCCN(C)C(=O)Nc1ncc(C#Cc2cc(C(=O)Nc3cc(C(F)(F)F)ccn3)ccc2C)s1 [I-7]", "OBSERVED_RESULT": "10 to 50 nM"}
{"MOLECULE": "Cc1ccc(C(=O)Nc2cc(C(F)(F)F)ccn2)cc1C#Cc1cnc(NC(=O)NCCN(C)C)s1 [I-11]", "OBSERVED_RESULT": "10 to 50 nM"}
{"MOLECULE": "Cc1ccc(C(=O)Nc2cc(C(F)(F)F)ccn2)cc1C#Cc1cnc(NC(=O)NCCN2CCC(O)C2)s1 (stereo not shown) [I-18]", "OBSERVED_RESULT": "10 to 50 nM"}
{"MOLECULE": "COCCN(C)C(=O)Nc1ncc(C#Cc2cc(NC(=O)c3cc(C(F)(F)F)ccn3)ccc2C)s1 [I-54]", "OBSERVED_RESULT": "10 to 50 nM"}
{"MOLECULE": "CCN(C)C(=O)Nc1ncc(C#Cc2cc(C(=O)Nc3cc(C(F)(F)F)ccn3)ccc2C)s1 [I-8]", "OBSERVED_RESULT": "< 10 nM"}
{"MOLECULE": "Cc1ccc(C(=O)Nc2cc(C(F)(F)F)ccn2)cc1C#Cc1cnc(NC(=O)N(C)C2CCCN(C)C2)s1 (stereo not shown) [I-32]", "OBSERVED_RESULT": "10 to 50 nM"}
{"MOLECULE": "Cc1ccc(NC(=O)c2cc(C(F)(F)F)ccn2)cc1C#Cc1cnc(NC(=O)N(C)CCO)s1 [I-60]", "OBSERVED_RESULT": "10 to 50 nM"}
{"MOLECULE": "COC(=O)Nc1ncc(C#Cc2cc(C(=O)Nc3cc(C(F)(F)F)ccn3)ccc2C)s1 [I-3]", "OBSERVED_RESULT": "10 to 50 nM"}
{"MOLECULE": "Cc1ccc(NC(=O)c2cccc(OC(F)(F)F)c2)cc1C#Cc1cnc(NC(=O)N(C)C)s1 [I-56]", "OBSERVED_RESULT": "10 to 50 nM"}
{"MOLECULE": "CNC(=O)Nc1ncc(C#Cc2ccc(F)c(C(=O)Nc3cc(C(F)(F)F)ccn3)c2)s1 [I-42]", "OBSERVED_RESULT": "100 to 10000 nM"}
{"MOLECULE": "Cc1ccc(C(=O)Nc2cc(C(F)(F)F)ccn2)cc1C#Cc1cnc(NC(=O)N(C)C2CCC(O)CC2)s1 (stereo not shown) [I-22]", "OBSERVED_RESULT": "< 10 nM"}
{"MOLECULE": "Cc1ccc(C(=O)Nc2cc(C(F)(F)F)ccn2)cc1C#Cc1cnc(NC(=O)NCCN2CCN(C)CC2)s1 [I-14]", "OBSERVED_RESULT": "10 to 50 nM"}
{"MOLECULE": "Cc1ccc(C(=O)Nc2cc(C(F)(F)F)ccn2)cc1C#Cc1cnc(NC(=O)N(C)C)s1 [I-1]", "OBSERVED_RESULT": "< 10 nM"}
{"MOLECULE": "Cc1ccc(NC(=O)c2cc(C(F)(F)F)ccn2)cc1C#Cc1cnc(NC(=O)N(C)CCN(C)C)s1 [I-58]", "OBSERVED_RESULT": "50 to 100 nM"}
{"MOLECULE": "Cc1ccc(C(=O)Nc2cc(C(F)(F)F)ccn2)cc1C#Cc1cnc(NC(=O)N2CCOCC2)s1 [I-35]", "OBSERVED_RESULT": "< 10 nM"}
{"MOLECULE": "Cc1ccc(C(=O)Nc2cc(C(F)(F)F)ccn2)cc1C#Cc1cnc(NC(=O)N2CCC(N3CCN(C)CC3)CC2)s1 [I-41]", "OBSERVED_RESULT": "10 to 50 nM"}

* * *

target: BAF3 FL KIT EX11DEL/V654A (Homo sapiens, UniProt P10721, V654A, cells depend on it, form not given); construct: BAF3 FL KIT EX11DEL/V654A; assay: c-Kit assay: Ba/F3 KIT mutant cell viability (Cell Titer-Glo, 72 hours); assay type: cell-based; conditions: viability after 72 hours
Sequence (P10721 with tags, fused parts or gaps DEL557-558/V654A, form open): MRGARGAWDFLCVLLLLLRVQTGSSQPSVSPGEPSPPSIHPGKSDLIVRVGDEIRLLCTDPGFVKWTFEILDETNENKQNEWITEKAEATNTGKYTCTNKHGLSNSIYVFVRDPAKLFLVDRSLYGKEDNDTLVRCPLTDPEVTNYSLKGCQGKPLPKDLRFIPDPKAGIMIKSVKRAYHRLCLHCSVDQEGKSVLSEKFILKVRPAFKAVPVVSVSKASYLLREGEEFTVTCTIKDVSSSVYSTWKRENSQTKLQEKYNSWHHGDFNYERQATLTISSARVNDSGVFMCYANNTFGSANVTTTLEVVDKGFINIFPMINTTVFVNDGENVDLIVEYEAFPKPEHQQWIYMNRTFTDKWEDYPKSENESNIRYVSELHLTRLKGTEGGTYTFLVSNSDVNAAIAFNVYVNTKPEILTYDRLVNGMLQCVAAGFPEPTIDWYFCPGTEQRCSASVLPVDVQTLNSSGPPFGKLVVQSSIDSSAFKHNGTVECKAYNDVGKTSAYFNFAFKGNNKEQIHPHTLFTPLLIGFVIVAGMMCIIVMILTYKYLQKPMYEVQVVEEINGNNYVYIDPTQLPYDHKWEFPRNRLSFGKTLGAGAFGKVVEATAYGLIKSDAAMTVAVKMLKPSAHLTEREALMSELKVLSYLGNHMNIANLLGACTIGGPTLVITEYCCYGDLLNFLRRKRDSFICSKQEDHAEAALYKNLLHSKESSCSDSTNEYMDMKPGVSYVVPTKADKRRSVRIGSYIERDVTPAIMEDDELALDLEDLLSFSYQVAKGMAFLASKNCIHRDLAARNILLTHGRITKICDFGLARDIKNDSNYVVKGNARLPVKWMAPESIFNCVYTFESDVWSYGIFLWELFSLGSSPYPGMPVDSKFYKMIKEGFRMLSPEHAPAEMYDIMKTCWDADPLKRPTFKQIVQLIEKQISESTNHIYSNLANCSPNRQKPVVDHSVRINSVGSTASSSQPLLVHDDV

{"MOLECULE": "Cc1ccc(C(=O)Nc2cc(C(F)(F)F)ccn2)cc1C#Cc1cnc(NC(=O)NC2CC2)s1 [I-17]", "GI50": "10 to 50 nM"}
{"MOLECULE": "Cc1ccc(C(=O)Nc2cc(C(F)(F)F)ccn2)cc1C#Cc1cnc(NC(=O)N(C)CC(C)(C)O)s1 [I-21]", "GI50": "10 to 50 nM"}
{"MOLECULE": "Cc1ccc(C(=O)Nc2cc(C(F)(F)F)ccn2)cc1C#Cc1cnc(NC(=O)NCCN2CCCC2)s1 [I-12]", "GI50": "50 to 100 nM"}
{"MOLECULE": "Cc1ccc(C(=O)Nc2cc(C(F)(F)F)ccn2)cc1C#Cc1cnc(NC(=O)N2CCNCC2)s1 [I-30]", "GI50": "10 to 50 nM"}
{"MOLECULE": "Cc1ccc(C(=O)Nc2cc(C(F)(F)F)ccn2)cc1C#Cc1cnc(NC(=O)N(C)C2CCN(C)CC2)s1 [I-29]", "GI50": "10 to 50 nM"}
{"MOLECULE": "CC(=O)N1CCN(C(=O)Nc2ncc(C#Cc3cc(C(=O)Nc4cc(C(F)(F)F)ccn4)ccc3C)s2)CC1 [I-37]", "GI50": "< 10 nM"}
{"MOLECULE": "Cc1ccc(C(=O)Nc2cc(C(F)(F)F)ccn2)cc1C#Cc1cnc(NC(=O)N(C)C2CCC(O)CC2)s1 (centres unmarked) [I-22]", "GI50": "< 10 nM"}
{"MOLECULE": "Cc1ccc(NC(=O)c2cc(C(F)(F)F)ccn2)cc1C#Cc1cnc(NC(=O)N(C)CCN(C)C)s1 [I-58]", "GI50": "50 to 100 nM"}
{"MOLECULE": "Cc1ccc(NC(=O)c2cccc(OC(F)(F)F)c2)cc1C#Cc1cnc(NC(=O)N(C)C)s1 [I-56]", "GI50": "10 to 50 nM"}
{"MOLECULE": "Cc1ccc(C(=O)Nc2cc(C(F)(F)F)ccn2)cc1C#Cc1cnc(NC(=O)N(C)CCN(C)C)s1 [I-9]", "GI50": "10 to 50 nM"}
{"MOLECULE": "CNCCN(C)C(=O)Nc1ncc(C#Cc2cc(C(=O)Nc3cc(C(F)(F)F)ccn3)ccc2C)s1 [I-28]", "GI50": "10 to 50 nM"}
{"MOLECULE": "Cc1ccc(C(=O)Nc2cc(C(F)(F)F)ccn2)cc1C#Cc1cnc(NC(=O)NCc2ccncc2)s1 [I-26]", "GI50": "10 to 50 nM"}
{"MOLECULE": "Cc1ccc(C(=O)Nc2cc(C(F)(F)F)ccn2)cc1C#Cc1cnc(NC(=O)N2CCC(C)CC2)s1 [I-25]", "GI50": "10 to 50 nM"}
{"MOLECULE": "Cc1ccc(C(=O)Nc2cc(C(F)(F)F)ccn2)cc1C#Cc1cnc(NC(=O)NCCN(C)C)s1 [I-11]", "GI50": "10 to 50 nM"}
{"MOLECULE": "Cc1ccc(C(=O)Nc2cc(C(F)(F)F)ccn2)cc1C#Cc1cnc(NC(=O)N(C)CCN2CCCC2)s1 [I-19]", "GI50": "10 to 50 nM"}
{"MOLECULE": "Cc1ccc(C(=O)Nc2cc(C(F)(F)F)ccn2)cc1C#Cc1cnc(NC(=O)NCCN)s1 [I-38]", "GI50": "50 to 100 nM"}
{"MOLECULE": "Cc1ccc(C(=O)Nc2cc(C(F)(F)F)ccn2)cc1C#Cc1cnc(NC(=O)N2CCC(N3CCN(C)CC3)CC2)s1 [I-41]", "GI50": "10 to 50 nM"}
{"MOLECULE": "Cc1ccc(C(=O)Nc2cc(C(F)(F)F)ccn2)cc1C#Cc1cnc(NC(=O)N(C)CCN2CCN(C)CC2)s1 [I-16]", "GI50": "10 to 50 nM"}
{"MOLECULE": "CCN(C)C(=O)Nc1ncc(C#Cc2cc(C(=O)Nc3cc(C(F)(F)F)ccn3)ccc2C)s1 [I-8]", "GI50": "10 to 50 nM"}
{"MOLECULE": "Cc1ccc(C(=O)Nc2cc(C(F)(F)F)ccn2)cc1C#Cc1cnc(NC(=O)NCC2CCN(C)CC2)s1 [I-13]", "GI50": "10 to 50 nM"}
{"MOLECULE": "Cc1ccc(C(=O)Nc2cc(C(F)(F)F)ccn2)cc1C#Cc1cnc(NC(=O)NCCCCN)s1 [I-31]", "GI50": "50 to 100 nM"}
{"MOLECULE": "Cc1ccc(NC(=O)c2cc(C(F)(F)F)ccn2)cc1C#Cc1cnc(NC(=O)N(C)C2CCN(C)CC2)s1 [I-53]", "GI50": "10 to 50 nM"}
{"MOLECULE": "Cc1ccc(C(=O)Nc2cc(C(F)(F)F)ccn2)cc1C#Cc1cnc(NC(=O)N(C)C2CN(C)C2)s1 [I-39]", "GI50": "100 to 10000 nM"}
{"MOLECULE": "COCCN(C)C(=O)Nc1ncc(C#Cc2cc(NC(=O)c3cc(C(F)(F)F)ccn3)ccc2F)s1 [I-62]", "GI50": "10 to 50 nM"}
{"MOLECULE": "CNC(=O)Nc1ncc(C#Cc2cc(NC(=O)c3cc(C(F)(F)F)ccn3)ccc2C)s1 [I-57]", "GI50": "< 10 nM"}
{"MOLECULE": "Cc1ccc(C(=O)Nc2cc(C(F)(F)F)ccn2)cc1C#Cc1cnc(NC(=O)C(C)(C)C)s1 [I-52]", "GI50": "100 to 10000 nM"}
{"MOLECULE": "COCCNC(=O)Nc1ncc(C#Cc2cc(C(=O)Nc3cc(C(F)(F)F)ccn3)ccc2C)s1 [I-5]", "GI50": "10 to 50 nM"}
{"MOLECULE": "Cc1ccc(C(=O)Nc2cc(C(F)(F)F)ccn2)cc1C#Cc1cnc(NC(=O)N2CC(C)(O)C2)s1 [I-24]", "GI50": "< 10 nM"}
{"MOLECULE": "COCCN(C)C(=O)Nc1ncc(C#Cc2cc(C(=O)Nc3ccc(C#N)c(C(F)(F)F)c3)ccc2C)s1 [I-48]", "GI50": "50 to 100 nM"}
{"MOLECULE": "Cc1ccc(C(=O)Nc2cc(C(F)(F)F)ccn2)cc1C#Cc1cnc(NC(=O)N(C)CC2CCCN2C)s1 (centres unmarked) [I-20]", "GI50": "10 to 50 nM"}
{"MOLECULE": "COCCN(C)C(=O)Nc1ncc(C#Cc2cc(C(=O)Nc3cc(C(F)(F)F)ccn3)ccc2C)s1 [I-7]", "GI50": "10 to 50 nM"}
{"MOLECULE": "CC(=O)Nc1ncc(C#Cc2cc(C(=O)Nc3cc(C(F)(F)F)ccn3)ccc2C)s1 [I-51]", "GI50": "10 to 50 nM"}
